TEST SYSTEM: Human TRPV3 (Homo sapiens)
Construct: expressed in transfected cells; host or cells: CHO cells (G-418 selection)
Sequence (Q8NET8 1-790): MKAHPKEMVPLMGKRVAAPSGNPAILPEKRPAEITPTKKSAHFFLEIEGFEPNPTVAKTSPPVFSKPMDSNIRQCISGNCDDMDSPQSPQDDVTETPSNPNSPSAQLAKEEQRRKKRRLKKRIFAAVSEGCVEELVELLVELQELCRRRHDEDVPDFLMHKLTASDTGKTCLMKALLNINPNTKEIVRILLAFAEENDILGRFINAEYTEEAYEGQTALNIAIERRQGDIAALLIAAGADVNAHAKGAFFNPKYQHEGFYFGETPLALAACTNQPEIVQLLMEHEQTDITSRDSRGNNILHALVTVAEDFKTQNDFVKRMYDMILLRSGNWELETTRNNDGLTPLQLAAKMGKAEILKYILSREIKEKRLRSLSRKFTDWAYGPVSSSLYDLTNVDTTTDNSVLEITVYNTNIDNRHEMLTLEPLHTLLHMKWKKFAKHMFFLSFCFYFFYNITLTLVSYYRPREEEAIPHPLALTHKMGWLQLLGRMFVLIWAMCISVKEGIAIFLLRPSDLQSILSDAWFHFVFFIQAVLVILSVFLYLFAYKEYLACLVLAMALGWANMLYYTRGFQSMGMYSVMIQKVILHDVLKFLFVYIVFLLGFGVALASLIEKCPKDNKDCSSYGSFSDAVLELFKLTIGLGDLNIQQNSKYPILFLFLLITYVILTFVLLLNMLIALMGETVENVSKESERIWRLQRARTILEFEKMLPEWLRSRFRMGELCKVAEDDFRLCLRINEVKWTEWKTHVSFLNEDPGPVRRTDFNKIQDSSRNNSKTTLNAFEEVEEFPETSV
TEST SUMMARY: Screening for TRPV3 antagonist using the 45Calcium uptake assay (inhibition of 2-APB induced cellular uptake of radioactive calcium)
Type: cell-based
ASSAY CONDITIONS: 10.0 μM test compound; human TRPV3 expressing CHO cells; 2-APB 500 μM; read-out: Percentage inhibition at 10.0 μM
Experimental: The illustrative examples of the present invention are screened for TRPV3 activity according to a modified procedure described in Tóth, A., Kedei, N., Wang, Y. and Blumberg, P. M. Life Sciences (2003), 73, 487-498. […] The inhibition of TRPV3 receptor activation was followed as inhibition of 2-aminoethoxydiphenylborate (2-APB) induced cellular uptake of radioactive calcium. […] Radioactivity in the lysate was measured in Packardt Top count after addition of liquid scintillant. […]
METRIC NAME: inhibition at 10 µM (%)

Worked examples, 10 molecules total:
[
  {
    "MOL": "COc1cccc(/C=C/c2nc3sccn3c(=O)c2-c2ccc(OC(F)(F)F)cc2)c1OCC1CCC1",
    "READING": 92.2
  },
  {
    "MOL": "CCOCCOc1c(/C=C/c2nc3sc4ccccc4n3c(=O)c2-c2ccc(C#N)cc2)cccc1OC",
    "READING": 91.9
  },
  {
    "MOL": "CCCOc1c(/C=C/c2nc3sccn3c(=O)c2-c2ccc(OC(F)(F)F)cc2)cccc1OC",
    "READING": 95.3
  },
  {
    "MOL": "COCCOc1c(/C=C/c2nc3sc4ccccc4n3c(=O)c2-c2ccc(OC(F)(F)F)cc2)cccc1OC",
    "READING": 67.7
  },
  {
    "MOL": "O=c1c(-c2ccc(C(F)(F)F)cc2)c(/C=C/c2cccnc2)nc2sccn12",
    "READING": 15.2
  },
  {
    "MOL": "COc1cccc(/C=C/c2nc3sc(C)cn3c(=O)c2-c2ccc(OC(F)(F)F)cc2)c1OCC1CC1",
    "READING": 90.4
  },
  {
    "MOL": "CCCCOc1c(/C=C/c2nc3sccn3c(=O)c2-c2ccc(OC(F)(F)F)cc2)cccc1OC",
    "READING": 91.9
  },
  {
    "MOL": "COc1cccc(/C=C/c2nc3sc(Cl)cn3c(=O)c2-c2ccc(C#N)cc2)c1OCC(C)(C)C",
    "READING": 87.7
  },
  {
    "MOL": "CCOc1ccc(-c2c(/C=C/c3cccc(OC)c3OCC3CC3)nc3sccn3c2=O)cc1",
    "READING": 88.6
  },
  {
    "MOL": "COc1ccc(/C=C/c2nc3sccn3c(=O)c2-c2ccc(C(F)(F)F)cc2)cc1OCC1CC1",
    "READING": 88.1
  }
]

A = COc1cccc(/C=C/c2nc3sc(C)c(C)n3c(=O)c2-c2ccc(OC(F)(F)F)cc2)c1OCC1CC1
B = COc1cccc(/C=C/c2nc3sccn3c(=O)c2-c2ccc(C(F)(F)F)cc2)c1OCC1CCC1
C = O=c1c(-c2ccc(OC(F)(F)F)cc2)c(/C=C/c2cccc(OCC3CC3)c2OCC2CC2)nc2sccn12
[ask] Ordering criterion: inhibition at 10 µM; begin with the maximum. Form field (ranking): labels in requested order.
[reply] B, A, C
(B: 78.4%, A: 44%, C: 21.1%)
